# System: Plasmodium berghei
# experiment.summary: Luciferase/luciferin-expressing antifolate-resistant parasites were used to infect a culture of HepG2 cells that were pre-incubated with compounds. Infected hepatocytes emit light due to the luciferase reaction. Assay results are presented as the percent inhibition of light emission compared to control. […]
# Format: functional
# measurement.parameters: sporozoite, read-out: LUCIFERASE INFECTION ASSAY - IC90
Listed here: items and their measured IC90.

{"columns": ["smiles.representation", "meas.value"],
 "data": [
  ["NC(=O)c1ccsc1NC(=O)c1cc(-c2ccccc2)nn1-c1ccccc1", "3.68 µM"],
  ["Clc1ccc2c(NCc3ccc(-n4cccn4)nc3)ncnc2c1", "> 10 µM"],
  ["COc1ccc(-c2nn(-c3ccccc3)cc2CN(Cc2ccccc2)C(=O)c2ccco2)cc1", "> 10 µM"]
]}

Return value of IC90 for input CC(C)(C)c1cc(C(=O)NNC(=O)Nc2cccc(C(F)(F)F)c2)n(Cc2ccccc2)n1 , no commentary.
> 7.18 µM

Return value of IC90 for input Cc1ccc(Nc2nc(N)nc(CN(C)Cc3nc(=O)c4ccccc4[nH]3)n2)cc1 , no commentary.
8.22 µM

Return value of IC90 for input O=C(Nc1ccc(F)c(Cl)c1)N1CCc2nc(Nc3cc(Cl)cc(Cl)c3)ncc2C1 , no commentary.
> 7.07 µM

Return value of IC90 for input CCc1ccc(Cl)c(CC)c1NC(=O)Cc1c(C)nn(CC(C)C)c1C , no commentary.
4.06 µM

Return value of IC90 for input Cc1c(Sc2ccc(Cl)cc2)c2ccccn2c1C(=O)c1cccs1 , no commentary.
> 10 µM

Return value of IC90 for input N#C/C(=N\Nc1ccc(F)cc1)C(=O)c1ccc(Cl)cc1 , no commentary.
> 10.9 µM

Return value of IC90 for input CNC(=O)c1ccc(S(=O)(=O)Nc2cccc(-c3nnnn3C)c2)cc1 , no commentary.
> 10 µM

###

# Tested on: Plasmodium berghei
# experiment.summary: Luciferase/luciferin-expressing antifolate-resistant parasites were used to infect a culture of HepG2 cells that were pre-incubated with compounds. Infected hepatocytes emit light due to the luciferase reaction. Assay results are presented as the percent inhibition of light emission compared to control. […]
# Assay type: functional
# measurement.parameters: sporozoite, HEPG2TOX_HILL_SLOPE 2.02, HEPG2TOX_R_SQUARED 0.871, PBLUC_HILL_SLOPE 4.17, 0.287, PBLUC_R_SQUARED 0.527, 0.262, read-out: LUCIFERASE INFECTION ASSAY - IC50
quantity: pIC50
Lab note — pIC50 values are minus log10 of concentrations in M.

Return value of pIC50 for input Cc1ccc(C)c(C(=O)C(C)Sc2nnc(-c3cccc(Br)c3)o2)c1 (stereo unspecified) , no commentary.
5.38

###

# System: Plasmodium berghei
# experiment.summary: Luciferase/luciferin-expressing antifolate-resistant parasites were used to infect a culture of HepG2 cells that were pre-incubated with compounds. Infected hepatocytes emit light due to the luciferase reaction. Assay results are presented as the percent inhibition of light emission compared to control. […]
# Type: functional
# measurement.parameters: sporozoite, HEPG2TOX_HILL_SLOPE 15.4, HEPG2TOX_R_SQUARED 0.694, PBLUC_HILL_SLOPE 2.82, PBLUC_R_SQUARED 0.474, read-out: LUCIFERASE INFECTION ASSAY - IC50
quantity: pIC50
Lab note — pIC50 values are minus log10 of concentrations in M.

Return value of pIC50 for input Cc1csc(NC(=O)Nc2cc(C(F)(F)F)cc(C(F)(F)F)c2)c1 , no commentary.
5.81
